Test system H3 receptor (Rattus norvegicus, UniProt Q9QYN8), pIC50 listed for each of the molecules.
Just so you know, pIC50 here is -log10 of the concentration in molar units; reply with that number alone.

Solved cases below.
CC(C)(C)N1CCC(Oc2ccc(-n3cc(C(N)=O)nn3)cc2)CC1 ... 6.91
CCOc1cn(-c2ccc(OC3CCN(C4CCC4)CC3)cc2)nn1 ... 8.29
O=C(c1cn(-c2ccc(OC3CCN(C4CCC4)CC3)cc2)nn1)N1CCCC1 ... 8.74

Next up:
Query block: Under H3 receptor (Rattus norvegicus, UniProt Q9QYN8): pIC50 value of `c1cn(-c2ccc(OC3CCN(C4CCC4)CC3)cc2)nn1` ?
Result block: 7.77
